Test system: L1210
procedure.details: In vitro cytotoxicity, Microculture Tetrazolium Assay, L1210
Assay type: cell-based
run.conditions: L1210 murine leukaemia, incubated for 2 days; read-out: IC50 (concentration of cytotoxic agent which inhibits proliferation of the treated cells by 50%)
experimental.readout: pIC50
The value called pIC50 is obtained by taking minus log10 of the concentration in mol/L.

Give its pIC50 value. Item: COc1cc(C2C3=C(COC3=O)Nc3c2ccc2ccc(O)cc32)cc(OC)c1OC (stereo not shown) [Example 4]
8.15

Data credit: patent US20040180917A1
